Biological target: T1, human GPRC5D (human, UniProt Q9NZD1 1-345)
T1 construct: on transfected HEK293/RBL cells or endogenous on myeloma cells (H929, MM1R, OPM2, LP1, JIM3, patient plasma cells); also called G protein-coupled receptor class C group 5 member D; hGPRC5D
T1 sequence (Q9NZD1 whole entry): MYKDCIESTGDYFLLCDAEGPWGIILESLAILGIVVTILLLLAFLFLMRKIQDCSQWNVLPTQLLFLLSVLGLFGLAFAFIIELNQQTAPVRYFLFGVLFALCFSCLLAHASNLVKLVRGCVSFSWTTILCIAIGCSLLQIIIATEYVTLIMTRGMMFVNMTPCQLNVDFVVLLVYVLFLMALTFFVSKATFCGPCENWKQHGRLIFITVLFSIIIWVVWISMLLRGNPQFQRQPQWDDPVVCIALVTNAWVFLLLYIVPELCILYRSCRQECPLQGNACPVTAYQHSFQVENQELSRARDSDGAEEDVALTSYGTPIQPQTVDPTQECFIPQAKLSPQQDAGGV
Experiment: FACS, human GPRC5D cells
Metric Name: MFI

Below, each entry is followed by its recorded MFI result.
| Binder | MFI |
| --- | --- |
| GC5B485 (antibody, V domains shown, GC5B164 PTM variant; also called GC5H264) VH: EVQLVQSGAEVKKPGESLKISCKGSGYSFTSYAIGWVRQMPGKGLEWMGIIYPGKSDTRYSPSFQGQVTISADKSISTAYLQWSSLKASDTAMYYCARVYSFGGRHKALFDYWGQGTLVTVSS VL: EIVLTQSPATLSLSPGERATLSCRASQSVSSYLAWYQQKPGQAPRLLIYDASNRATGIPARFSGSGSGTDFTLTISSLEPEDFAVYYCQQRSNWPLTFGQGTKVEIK | 1000 to 10000 mfi |
| GC5B503 (antibody, V domains shown, GC5B164 PTM variant; also called GC5H246) VH: EVQLVQSGAEVKKPGESLKISCKGSGYSFTSYWIGWVRQMPGKGLEWMGIIYPGKSDTRYSPSFQGQVTISADKSISTAYLQWSSLKASDTAMYYCARVYSFGGRHKALFDYWGQGTLVTVSS VL: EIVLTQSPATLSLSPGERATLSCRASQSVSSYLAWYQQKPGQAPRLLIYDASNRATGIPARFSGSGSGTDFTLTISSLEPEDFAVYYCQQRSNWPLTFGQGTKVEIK | > 10000 mfi |

Given the entry GC5B494 (antibody, V domains shown, GC5B164 PTM variant; also called GC5H255) VH: EVQLVQSGAEVKKPGESLKISCKGSGYSFTSYGIGWVRQMPGKGLEWMGIIYPGYSDTRYSPSFQGQVTISADKSISTAYLQWSSLKASDTAMYYCARVYSFGGRHKALFDYWGQGTLVTVSS VL: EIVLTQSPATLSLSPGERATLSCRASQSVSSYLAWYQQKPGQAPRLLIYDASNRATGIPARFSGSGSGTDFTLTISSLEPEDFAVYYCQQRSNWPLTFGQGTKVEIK , report its measured MFI. 1000 to 10000 mfi

Hey, just so you know, these numbers are from patent US20180037651A1.
